So I've got a bunch of variants here, and I need their protein stability index values.
B1: POMT2 (parent)
chain: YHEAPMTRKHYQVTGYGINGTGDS

# Variants of: B1
# measurement-description: protein stability index of a GFP-peptide fusion (GPS, HEK-293T) (PSI 1-6); higher = more stable;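 further: lentivirally expressed fusions sorted by FACS into six bins by GFP to DsRed ratio, PSI derived from sequencing read proportions per bin multiplied by bin number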
# study-conditions: c terminus: a fixed tail appended
The response must contain the number and no unit.

Task item: Give its protein stability index value. Item: YHEAPMTRKHYWVTGYGINGTGDS [Q12W]
Reply: 1.91

Task item: Recorded protein stability index of YHEAPMTRKHYSVTGYGINGTGDS [Q12S] , please.
Reply: 2.22

Task item: What measured protein stability index goes with YHEAPMTRKAYQVTGYGINGTGDS [H10A] ?
Reply: 1.86

Task item: Given YEEAPMTRKHYQVTGYGINGTGDS [H2E] , state its recorded protein stability index.
Reply: 3.95

Task item: What does the data say about its protein stability index? Entry: YHEAPMTRKHYQKTGYGINGTGDS [V13K]
Reply: 2.68

Task item: Which protein stability index reading was recorded for the variant YHEAPMTRKHYQVTGYGINGPGDS [T21P] ?
Reply: 2.25

Task item: Entry YHEAGMTRKHYQVTGYGINGTGDS [P5G] has what protein stability index?
Reply: 2.51

Task item: What does the data say about its protein stability index? Entry: YHEAPMTRKHYDVTGYGINGTGDS [Q12D]
Reply: 3.05

Task item: Given YHEAPWTRKHYQVTGYGINGTGDS [M6W] , state its recorded protein stability index.
Reply: 1.42

Task item: What measured protein stability index goes with YHEKPMTRKHYQVTGYGINGTGDS [A4K] ?
Reply: 2.18

Task item: // lookup protein stability index for YHEAPMTRKHYQVTGYFINGTGDS [G17F]
Reply: 1.79

Task item: Which measured protein stability index value corresponds to YHEAPMTKKHYQVTGYGINGTGDS [R8K] ?
Reply: 2.44

Task item: Which protein stability index reading was recorded for the variant FHEAPMTRKHYQVTGYGINGTGDS [Y1F] ?
Reply: 1.89

Task item: Any idea what protein stability index was measured for YHEAPMTRKHYQVTGYGINGTGNS [D23N] ?
Reply: 2.17

Task item: Can you look up the measured protein stability index of YHEAPMTRWHYQVTGYGINGTGDS [K9W] for me?
Reply: 2.07

Task item: Looking for the measured protein stability index of YHEAPMTRKHYQVTCYGINGTGDS [G15C] , can you help?
Reply: 2.01

Task item: Data request, read-out protein stability index, for YHETPMTRKHYQVTGYGINGTGDS [A4T]
Reply: 2.21

Task item: Quick check: protein stability index of YHEASMTRKHYQVTGYGINGTGDS [P5S] ?
Reply: 2.69

Task item: Please report the recorded protein stability index for YHEAPMTRKHYQVTMYGINGTGDS [G15M] .
Reply: 2.03

Task item: What value of measured protein stability index is listed for YHEAPMTRKHYQVTGNGINGTGDS [Y16N] ?
Reply: 2.43

Task item: Suppose we examine the variant YHEAPMTRKHYQVTGYAINGTGDS [G17A] ; what protein stability index value has been reported?
Reply: 1.9

Task item: # lookup: protein stability index of YHEAPMTRKHYQVTGYGINGTGDT [S24T]
Reply: 1.98

Task item: Return reported protein stability index; argument: YHEAPMTRKHYQVTGYGINGTGWS [D23W]
Reply: 1.24

Task item: So what's the measured protein stability index for this one? YHEAPMTRKHYQVTGHGINGTGDS [Y16H]
Reply: 2.79

Task item: Look up protein stability index for this variant: YHEAPMTRKHYQLTGYGINGTGDS [V13L]
Reply: 2.69

Task item: What value of measured protein stability index is listed for YHEAPMTRKHYQVTRYGINGTGDS [G15R] ?
Reply: 2.02

Task item: Which measured protein stability index value corresponds to YHEAPMTRKHYQVTGYGIKGTGDS [N19K] ?
Reply: 2.44

Task item: Would you kindly share the measured protein stability index for THEAPMTRKHYQVTGYGINGTGDS [Y1T] ?
Reply: 3.91

Task item: Field request: protein stability index | item: YHEAPMTRKHYQVTGYGINGTGDW [S24W]
Reply: 1.49

Task item: Return reported protein stability index; argument: YHEAPMTRKHYQVTGYGINGTGDD [S24D]
Reply: 2.41

Task item: Looking for the measured protein stability index of YHEAPMTRKHYQVTGYGINQTGDS [G20Q] , can you help?
Reply: 2.43

Task item: Endpoint output: protein stability index of YHEAPMTRKHYQVTGYGINGTVDS [G22V] . Value?
Reply: 2.25

Task item: Request the reported protein stability index associated with YHEAPMTRKHYQVTGYGINGDGDS [T21D]
Reply: 2.46

Task item: Request the reported protein stability index associated with YHEAPMTQKHYQVTGYGINGTGDS [R8Q]
Reply: 2.86

Task item: // query protein stability index value for entry YHEARMTRKHYQVTGYGINGTGDS [P5R]
Reply: 2.29

Task item: Record request: protein stability index value, item YNEAPMTRKHYQVTGYGINGTGDS [H2N]
Reply: 3.5

Task item: Can you share its protein stability index? I mean this variant: YHEAPMTRKHYLVTGYGINGTGDS [Q12L]
Reply: 2.29

Task item: Look up protein stability index: YHEAPMTRKHYQVTGYGITGTGDS [N19T]
Reply: 2.21

Task item: Need protein stability index, item YHEAPMWRKHYQVTGYGINGTGDS [T7W]
Reply: 3.27

Task item: Name the recorded protein stability index for YHEAPMTRKHYQVTGYGIAGTGDS [N19A] .
Reply: 1.8

Task item: Requested field: protein stability index. Item: YHEAPMTRKHYQVTGYGINGGGDS [T21G]
Reply: 1.83

Task item: If you can, please state the reported protein stability index value of YHEAPMTRKHYQVSGYGINGTGDS [T14S] .
Reply: 2.03

Task item: Recorded protein stability index of YHERPMTRKHYQVTGYGINGTGDS [A4R] , please.
Reply: 2.45

Task item: Which protein stability index reading was recorded for the variant YHEAPMTRKHYQVTGFGINGTGDS [Y16F] ?
Reply: 1.75

Task item: Please look up its protein stability index: YHEAPNTRKHYQVTGYGINGTGDS [M6N]
Reply: 2.15

Task item: Record request: protein stability index value, item YHEAPMTRKHYQVTLYGINGTGDS [G15L]
Reply: 1.51

Task item: Value lookup for protein stability index; key = YHEAPMTRKHYQVTGYGINGTADS [G22A]
Reply: 2.26

Task item: Return reported protein stability index; argument: YHEAPMTRKHYQVTGYGINGTIDS [G22I]
Reply: 1.68

Task item: Reported protein stability index, variant YHEAPCTRKHYQVTGYGINGTGDS [M6C] : ____
Reply: 2

Task item: Param item = YHEAPMTRKHYYVTGYGINGTGDS [Q12Y] ; retrieve measured protein stability index.
Reply: 2.46

Task item: Bench note: what protein stability index did YHEAPMTIKHYQVTGYGINGTGDS [R8I] show?
Reply: 1.94

Task item: Consider the variant shown here: YHEAPMTRCHYQVTGYGINGTGDS [K9C] What is its recorded protein stability index?
Reply: 2.42

Task item: Fill in: protein stability index of YHEAPMTRKHYQVTGYGISGTGDS [N19S] is ___
Reply: 2.3

Task item: What value of protein stability index has been recorded for this entry: YHEAPMTRKHYQVTGYGINGTGFS [D23F]
Reply: 1.63

Task item: Returns the measured protein stability index for the input variant. Input: YHEAPMCRKHYQVTGYGINGTGDS [T7C]
Reply: 2.2

Task item: Field request: protein stability index | item: YHEAPETRKHYQVTGYGINGTGDS [M6E]
Reply: 2.56

Task item: Sample YHEAPMTRKHYQVKGYGINGTGDS [T14K] — what was its protein stability index?
Reply: 1.97

Task item: Fill in: protein stability index of YHECPMTRKHYQVTGYGINGTGDS [A4C] is ___
Reply: 2.5

Task item: Quick one: protein stability index for YVEAPMTRKHYQVTGYGINGTGDS [H2V] ?
Reply: 1.89

Task item: Suppose we examine the variant YHEAPMTRKHYQHTGYGINGTGDS [V13H] ; what protein stability index value has been reported?
Reply: 2.84

Task item: Fill in the blank: the reported protein stability index of YHEAPMTRKHYQVTGYGINGTYDS [G22Y] is ____.
Reply: 2.15

Task item: Quick one: protein stability index of YHEAPMTRKHYQVTGYGINGTGDH [S24H] ?
Reply: 1.99

Task item: # query: protein stability index of entry YHEAPMTAKHYQVTGYGINGTGDS [R8A]
Reply: 2.61

Task item: Value lookup for protein stability index; key = YHEAPMTRKHYQVTGYMINGTGDS [G17M]
Reply: 1.84

Task item: Need protein stability index of YHEAPMTRKHYQVTGYGDNGTGDS [I18D] , thanks.
Reply: 2.9

Task item: What value of protein stability index has been recorded for this entry: YHEAPMTTKHYQVTGYGINGTGDS [R8T]
Reply: 2.44

Task item: GET /values?readout=protein stability index&item= CHEAPMTRKHYQVTGYGINGTGDS [Y1C]
Reply: 3.05

Task item: Given the variant YHEAPMTRKHYQVTGYGINWTGDS [G20W] , what is its reported protein stability index?
Reply: 2.12

Task item: # lookup: protein stability index of YHEAPMTRKHYQVTGYGINSTGDS [G20S]
Reply: 2.36

Task item: Please give the measured protein stability index for this variant: NHEAPMTRKHYQVTGYGINGTGDS [Y1N]
Reply: 3.5

Task item: Query (variant): YHEAPMTRKEYQVTGYGINGTGDS [H10E] ; field requested: protein stability index
Reply: 3.02

Task item: What does the record list as protein stability index for YHEAPMTRKHYQVTGDGINGTGDS [Y16D] ?
Reply: 3.66

Task item: protein stability index for YHEAPMTRKHYQVTIYGINGTGDS [G15I] ?
Reply: 1.59

Task item: Look up protein stability index: YHEQPMTRKHYQVTGYGINGTGDS [A4Q]
Reply: 2.68

Task item: Sample YHEAPMTFKHYQVTGYGINGTGDS [R8F] — what was its protein stability index?
Reply: 2.09

Task item: What does the data say about its protein stability index? Entry: YHEAPMTRKHYQVTGYHINGTGDS [G17H]
Reply: 2.06

Task item: Which protein stability index reading was recorded for the variant YREAPMTRKHYQVTGYGINGTGDS [H2R] ?
Reply: 3.81

Task item: Item YHEAPMTRKHYQVIGYGINGTGDS [T14I] has what recorded protein stability index?
Reply: 2.12

Task item: Fill blank: measured protein stability index of the variant YHEAKMTRKHYQVTGYGINGTGDS [P5K] is ____.
Reply: 2.36

Task item: I have this variant here, YHTAPMTRKHYQVTGYGINGTGDS [E3T] , and I need its recorded protein stability index.
Reply: 2.32

Task item: Given YHEAPMTRKHYQVTGYGIIGTGDS [N19I] , state its recorded protein stability index.
Reply: 1.9
